test: MTT assay; assay type: cell-based; details: bovine, MAC-T cells, 24 h
Record form. Attribute: CC50 at 24 h. Fill in for each entry.
Numbers only, in µM.

Memo: `CCCCCCCCCCNc1cc(N)nc(N)n1` , reported CC50 at 24 h: 13.5

Others:
Memo: `CCCCCCNc1cc(N)nc(N)n1` , reported CC50 at 24 h: 317

---

experiment: Metabolic stability; format: in vitro ADME; details: mouse, CD-1 female mice liver S9 fraction, 60 min, mono-exponential decay model, read-out: Half-life (T1/2)
PROPERTY_MEASURED: half-life at 10 µM (h)
Answers are plain numbers, in h.

Memo: `CCCCCCNc1cc(N)nc(N)n1` , reported half-life at 10 µM: 1.39
